# assay system: UniProt Q02750
# Sequence (Q02750 whole entry, looked up): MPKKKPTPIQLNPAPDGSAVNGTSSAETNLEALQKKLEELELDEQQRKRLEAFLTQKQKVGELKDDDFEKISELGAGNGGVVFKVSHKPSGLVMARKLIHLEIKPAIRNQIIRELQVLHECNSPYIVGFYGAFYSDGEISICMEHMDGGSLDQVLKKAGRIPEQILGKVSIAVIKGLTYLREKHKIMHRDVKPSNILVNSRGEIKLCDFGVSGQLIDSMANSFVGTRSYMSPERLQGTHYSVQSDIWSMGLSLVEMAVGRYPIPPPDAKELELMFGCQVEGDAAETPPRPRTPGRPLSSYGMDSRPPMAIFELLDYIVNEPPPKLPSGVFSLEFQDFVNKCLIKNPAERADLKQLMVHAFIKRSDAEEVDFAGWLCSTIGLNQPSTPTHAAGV
# experiment summary: KINOMEscan competition binding
# conditions: compound 10.0 µM
reported metric: kinase still bound, per cent of control (%)
Lab book: enter the figure in %, no units written.

For orientation, consider the following solved cases.
Cn1c(=O)n(-c2ccc(C(C)(C)C#N)cc2)c2c3cc(-c4cnc5ccccc5c4)ccc3ncc21 = 100
COc1cc(C(=O)NC2CCN(C)CC2)ccc1Nc1ncc2c(n1)N(C1CCCC1)CCC(=O)N2C(C)C = 100
Cc1ccc(NC(=O)c2cccc(C(C)(C)C#N)c2)cc1Nc1ccc2ncn(C)c(=O)c2c1 = 100
O=C(NC1CC1)c1cccc(-c2ccc3c(NC(=O)C4CC4)n[nH]c3c2)c1 = 100

// map `Nc1ccc(-c2ccc3ncc4ccc(=O)n(-c5cccc(C(F)(F)F)c5)c4c3c2)cn1` to recorded kinase still bound, per cent of control (system: UniProt Q02750)
100

Record: `C=CC(=O)Nc1cc(NC(=O)c2ccc(C)c(NC(=O)c3ccno3)c2)cc(C(F)(F)F)c1`
87

And for `C=CC(=O)Nc1cccc(Nc2nc(N[C@H]3CC[C@H](N(C)C)CC3)nc3c2ncn3C(C)C)c1` ?
83

// next record `CCC(=O)N1CCN(c2ccc(-n3c(=O)ccc4cnc5ccc(-c6cnc7ccccc7c6)cc5c43)cc2C(F)(F)F)CC1`
100

// query: `N#Cc1c(NC(=O)c2cccc3ccccc23)sc2c1CCCC2`
98

The origin of these recorded values is the kinase profiling compilation of Christmann-Franck et al. (2016).
